Taken from paper PMC9186351.

Assay: Cytotoxicity, SRB assay, HUVEC
Assay type: cell-based, human
Details: human, HUVEC cells, 72-h treatment (footnote), read-out: In vitro cytotoxicity CC50 (μM, mean ± SD)
measuredParameter: CC50 at 72 h

Looking for the measured CC50 at 72 h of CCCCCc1nc2ccccc2c(=O)n1NC(=O)c1c(O)c2ccccc2n(CC)c1=O [f1] , can you help? ~50 µM

----------
measuredParameter: melting point

Looking for the measured melting point of CCCCc1nc2ccccc2c(=O)n1NC(=O)c1c(O)c2ccccc2n(CC)c1=O [f16] , can you help? 139.8 to 140.5 °C

Looking for the measured melting point of CCCCCc1nc2c(Cl)cccc2c(=O)n1NC(=O)c1c(O)c2ccccc2n(CC)c1=O [f10] , can you help? 158.6 to 160.4 °C
